Some binders, each annotated with its measured 20 nM hKLB-HA-6His Bind (RU).
Molecular target: T1, extracellular domain of human KLB expressed with C-terminal HA and hexahistidine tags (human, UniProt Q86Z14 1-996)
T1 construct: also called hKLB-HA-6His; hKLB-HA-6his
T1 sequence: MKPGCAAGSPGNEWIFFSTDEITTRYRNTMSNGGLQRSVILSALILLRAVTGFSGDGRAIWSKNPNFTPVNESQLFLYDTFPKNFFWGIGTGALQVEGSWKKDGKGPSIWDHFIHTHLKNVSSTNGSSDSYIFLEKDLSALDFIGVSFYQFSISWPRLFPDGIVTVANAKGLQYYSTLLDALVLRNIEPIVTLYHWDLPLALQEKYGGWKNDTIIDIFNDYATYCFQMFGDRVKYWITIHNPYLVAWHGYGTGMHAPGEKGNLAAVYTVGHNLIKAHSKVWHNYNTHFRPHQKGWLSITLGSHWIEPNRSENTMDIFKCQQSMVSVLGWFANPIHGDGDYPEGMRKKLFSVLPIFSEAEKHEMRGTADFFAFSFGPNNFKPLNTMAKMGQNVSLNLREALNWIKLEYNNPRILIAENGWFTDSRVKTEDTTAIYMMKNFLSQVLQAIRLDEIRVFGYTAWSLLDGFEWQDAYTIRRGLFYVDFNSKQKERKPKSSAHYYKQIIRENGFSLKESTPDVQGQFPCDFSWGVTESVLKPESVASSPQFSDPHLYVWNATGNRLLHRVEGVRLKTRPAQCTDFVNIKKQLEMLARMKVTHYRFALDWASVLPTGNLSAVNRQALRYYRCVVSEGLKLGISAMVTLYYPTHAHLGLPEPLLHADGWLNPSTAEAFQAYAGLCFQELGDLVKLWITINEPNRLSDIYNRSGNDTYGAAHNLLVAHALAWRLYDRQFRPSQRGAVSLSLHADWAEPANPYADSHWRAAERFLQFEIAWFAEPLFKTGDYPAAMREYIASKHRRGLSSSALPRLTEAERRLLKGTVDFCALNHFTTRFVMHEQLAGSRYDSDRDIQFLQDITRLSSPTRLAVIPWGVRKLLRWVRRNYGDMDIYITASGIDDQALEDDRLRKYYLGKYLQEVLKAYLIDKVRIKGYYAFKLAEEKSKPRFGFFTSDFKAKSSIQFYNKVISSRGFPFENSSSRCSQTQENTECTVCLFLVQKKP
Experiment: SPR, mAb captured, 37 C
Could you give me the number in RU? Just the number is fine.

Consider the reported 20 nM hKLB-HA-6His Bind (RU) for these binders:
[[record]]
binder = "H4H8856P (antibody, V domains shown, human IgG4 Fc (H4H prefix)) VH: QVQLQESGPGLVKPSETLSLTCTVSGGSISSYYWSWIRQPPGKGLEWIAYIYYSGITKYNPSLKSRVTISADTSKNQFSLKLSSVTAADTAVYYCARHGIFGVMEYFQRWGQGTLVTVSS VL: DIQMTQSPSSLSASIGDRVTITCQASQDISNFLNWYQQKPGKAPTLLIYDVSNMETGVPSRFSGSGYGTDFTLTISSLKPEDIATYYCQQYDNIPLTFGGGTKVEIK"
measured_parameter = "20 nM hKLB-HA-6His Bind (RU)"
number = -0.5

[[record]]
binder = "H4H8837P (antibody, V domains shown, human IgG4 Fc (H4H prefix)) VH: QVQLVESGGGVVQPGRSLRLSCAASGFTFNSYAMHWVRQAPGMGLEWVAVISSDGSNKYYADSVRGRFTVSRDNSKNTLYLQMNSLRSEDTAVYYCAKDGRGYSSFSHFGMDVWGQGTTVTVSS VL: DIQMTQSPSTLSASVGDRVTITCRASQSIGSWLAWYQQKPGKAPKLLIYKTSSLESGVPSRFSGSGSGTEFTLTISSLQPDDFASYYCQQYNSYSFGQGTKVEIK"
measured_parameter = "20 nM hKLB-HA-6His Bind (RU)"
number = 372


Given the entry H4H8878P (antibody, V domains shown, human IgG4 Fc (H4H prefix)) VH: QVQLVESGGGVVQPGRSLRLSCAASGFTLNTYGMHWIRQTPGKGLEWVSLISYDETKEYYVDSVKGRFTISRDNSKNTLYLQMNSVRVEDTAVYYCAKPLTGSTDYYYGLDVWGQGTTVTVSS VL: DIQMTQSPSYVSASVGDRVIITCRASQDISSWLAWYQQKPGKAPKLLIYVTSSLESGVPSRFSGSGSGTDFTLTISGLQPEDFATYYCQQVKSFPPTFGPGTKVDIK , report its measured 20 nM hKLB-HA-6His Bind (RU).
101

Reference source: patent US20170174769A1
